// endpoint IC50 / system Replicase polyprotein 1ab (Severe acute respiratory syndrome coronavirus)

Use these answered entries as a reference point.
Query "O=C(Cn1nnc2ccccc21)c1ccc([N+](=O)[O-])cc1" on Replicase polyprotein 1ab (Severe acute respiratory syndrome coronavirus); IC50 returned: > 50 µM

The compound Nc1ccc(C(O)Cn2nnc3ccccc32)cc1 (stereo not drawn) , when measured on Replicase polyprotein 1ab (Severe acute respiratory syndrome coronavirus), yielded IC50 of > 50 µM

# context switch: different compound, same IC50
Record "Nc1ccc(C(=O)Cn2nnc3ccccc32)cc1" ; system Replicase polyprotein 1ab (Severe acute respiratory syndrome coronavirus); IC50 = > 50 µM

----------
# Target Of Assay: UniProt P0C6X7
# Experiment Notes: Inhibition Assay
# Study Conditions: pH 7.5
Measure Name: Ki

Lab book: Ki of CN(C)c1ccc(C(O)Cn2nnc3ccccc32)cc1 (configuration not stated) noted as > 50 µM

Attention now turns to another entry.
Documented Ki of CNc1ccc(C(O)Cn2nnc3ccccc32)cc1 (configuration not stated) : > 50 µM
